- Protocol description: Pharmacokinetic study of Icotinib hydrochloride and Polymorph Form II of Icotinib, oral suspension, plasma by HPLC
- Format: in vivo
- Condition context: male, SD, rat, po, 50 mg/kg, fasted male SD rats, oral suspension in sodium carboxymethyl cellulose, dose equivalent to 50 mg/kg Icotinib
Counter-ions that a name gives are not always drawn.
Measurement name: AUC(0-inf) (ng·h/mL)

1. C#Cc1cccc(Nc2ncnc3cc4c(cc23)OCCOCCOCCO4)c1 [Icotinib hydrochloride]    39800

###

- Protocol description: Pharmacokinetic study of Icotinib hydrochloride and Polymorph Form II of Icotinib, oral suspension, plasma by HPLC
- Type: in vivo
- Condition context: male, SD, rat, po, 50 mg/kg, fasted male SD rats, oral suspension in sodium carboxymethyl cellulose, dose equivalent to 50 mg/kg Icotinib
Structures can show the parent of a compound that is named as a salt.
Measurement name: half-life (h)

1) C#Cc1cccc(Nc2ncnc3cc4c(cc23)OCCOCCOCCO4)c1 [Icotinib hydrochloride]    3.1

The values you see were collected from patent US9611272B2.
